# testedSystem: recombinant eIF4E (Homo sapiens (Human))
# Sequence (P06730 whole entry): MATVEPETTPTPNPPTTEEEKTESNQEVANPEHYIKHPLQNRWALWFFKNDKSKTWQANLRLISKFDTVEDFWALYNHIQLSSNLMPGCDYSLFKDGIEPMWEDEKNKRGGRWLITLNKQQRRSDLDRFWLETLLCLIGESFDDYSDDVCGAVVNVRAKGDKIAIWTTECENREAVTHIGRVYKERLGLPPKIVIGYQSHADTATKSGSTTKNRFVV
# testDetails: Fluorescence polarization competition assay for eIF4E binding potency
# appliedConditions: inhibition of eIF4E/EDA-m7GDP-ATTO-550 binding by 50%; Table 4B calculated values; read-out: IC50
pIC50: −log10 of the molar value.
testReadout: pIC50

Illustrative cases are given below, each with its answer.
compound	testedSystem	pIC50
CCN(c1ncc2nc(C)n(CC#Cc3ccc(Cl)cc3-c3ccnc4c(C(=O)O)csc34)c(=O)c2c1C#N)C1CCN(CC(C)(F)F)CC1	recombinant eIF4E (Homo sapiens (Human))	7.47
Cc1cc(-c2cc(Cl)ccc2OCCn2c(C)nc3cnc(C4CC4C(F)(F)F)c(C#N)c3c2=O)c2scc(C(=O)O)c2n1 (stereo not drawn)	recombinant eIF4E (Homo sapiens (Human))	7.63
Cc1nc2cc(F)c(S(=O)(=O)N(C)C)c(C#N)c2c(=O)n1CCOc1ccc(Cl)cc1-c1ccnc2c(C(=O)O)csc12	recombinant eIF4E (Homo sapiens (Human))	7.43

[I] Cc1cc(-c2cc(Cl)ccc2OCCn2c(C)nc3cc(S(C)(=O)=O)c(N4CCN(C)CC4)c(C#N)c3c2=O)c2sc(C)c(C(=O)O)c2n1
[II] N#Cc1c(C(F)(F)F)ccc2ncn(CCOc3ccc(Cl)cc3-c3cccc(C(=O)O)c3)c(=O)c12
Which shows the larger pIC50 value: I or II ? Answer by quoting the chosen item's label. I

###

# testedSystem: recombinant eIF4E (Homo sapiens (Human))
# testDetails: Fluorescence polarization competition assay for eIF4E binding potency
# appliedConditions: inhibition of eIF4E/EDA-m7GDP-ATTO-550 binding by 50%; Table 4B calculated values; read-out: IC50
# Protocol: Compounds were screened for eIF4E binding potency using a fluorescence polarization competition assay. All binding reactions were performed in fluorescence polarization buffer (FPB) containing 20 mM Tris pH 7.5, 100 mM NaCl, 1 mM DTT, and 0.02% Tween-20. Final binding reactions contained 75 nM recombinant eIF4E (Beryllium, custom order), 20 nM EDA-m^7GDP-ATTO-550 (Jena Bioscience, NU-827-550) and varying concentrations of the inhibitory compound of interest. […]
testReadout: IC50 (nM)

molecule	IC50, nM
Cn1cc(CCOc2ccc(Cl)cc2-c2ccnc3c(C(=O)O)csc23)c(=O)c2c(C#N)cc(C(F)(F)F)cc21	101
Cc1cc(-c2cc(Cl)ccc2OCCn2c(C)nc3cc(C(F)(F)F)c(Cc4cccnc4)c(Cl)c3c2=O)c2scc(C(=O)O)c2n1	69.9
Cc1cc(-c2cc(Cl)ccc2OCCn2c(C)nc3cc(C(F)(F)F)c(-c4ccncn4)nc3c2=O)c2scc(C(=O)O)c2n1	7.51
Cc1nc2cc(Cl)c(Cl)c(C#N)c2c(=O)n1CCOc1ccc(C#N)cc1-c1ccnc2c(C(=O)O)csc12	42.7
Cc1cc(-c2cc(Cl)ccc2OCCc2c(C)n(C)c3cc(C(F)(F)F)cc(C#N)c3c2=O)c2scc(C(=O)O)c2n1	13.3

[1] Cc1cc(-c2cc(Cl)ccc2OCCn2c(C)nc3cnc(-n4cccn4)c(C#N)c3c2=O)c2scc(C(=O)O)c2n1
[2] N#Cc1ccc2ncn(CCOc3ccc(Cl)cc3-c3cccc(C(=O)O)c3)c(=O)c2c1
Select the item whose IC50 value is smaller, choosing between 1 and 2 . Answer by quoting the chosen item's label. 1

[I] Cc1cc(-c2cc(Cl)ccc2OCCn2c(C)nc3ccc(CCN(C)C)c(C#N)c3c2=O)c2scc(C(=O)NS(C)(=O)=O)c2n1
[II] Cc1cc(-c2cc(Cl)ccc2OCCn2c(C)nc3cc(C(F)(F)F)c(CN(C)C)c(C#N)c3c2=O)c2scc(C(=O)NS(C)(=O)=O)c2n1
Which shows the larger IC50 value: I or II ? Answer by quoting the chosen item's label. I
(I: 23.7 nM, II: 14.1 nM)
